Target: T1, HLA-A2/E7(11-19) tetramer (human; HPV 16)
T1 construct: also called E7(11-19) peptide-MHC tetramer; E7 tet
Assay: flow cytometry, tetramer + anti-CD8; transfected mix of CD8- and CD8+ Jurkat-derived cells;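 note: cells transiently transfected with TCR-encoding plasmids, analysed 48 h afterwards by co-staining with HLA-A*02:01 peptide tetramer and anti-CD8 antibody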
Readout kind: % cells E7 tet+/CD8+ quadrant (%)
A number alone suffices; assume %.

Identify % cells E7 tet+/CD8+ quadrant associated with the binder TCR 32 (codon-optimized, cysteine-modified) (TCR, V domains shown) V domain 1: TQLLEQSPQFLSIQEGENLTVYCNSSSVFSSLQWYRQEPGEGPVLLVTVVTGGEVKKLKRLTFQFGDARKDSSLHITAAQPGDTGLYLCAGGSNYKLTFGKGTLLTVNP V domain 2: DSGVTQTPKHLITATGQRVTLRCSPRSGDLSVYWYQQSLDQGLQFLIQYYNGEERAKGNILERFSAQQFPDLHSELNLSSLELGDSALYFCASSVGGDHSDEQFFGPGTRLTVLE
25.3

Identify % cells E7 tet+/CD8+ quadrant associated with the binder TCR 39 (codon-optimized, cysteine-modified) (TCR, V domains shown) V domain 1: GQQLNQSPQSMFIQEGEDVSMNCTSSSIFNTWLWYKQEPGEGPVLLIALYKAGELTSNGRLTAQFGITRKDSFLNISASIPSDVGIYFCAGYSSSNDYKLSFGAGTTVTVRA V domain 2: EPEVTQTPSHQVTQMGQEVILRCVPISNHLYFYWYRQILGQKVEFLVSFYNNEISEKSEIFDDQFSVERPDGSNFTLKIRSTKLEDSAMYFCASTPRDRGKEAFFGQGTRLTVVE
12.3

Identify % cells E7 tet+/CD8+ quadrant associated with the binder TCR 37 (codon-optimized, cysteine-modified) (TCR, V domains shown) V domain 1: ELKVEQNPLFLSMQEGKNYTIYCNYSTTSDRLYWYRQDPGKSLESLFVLLSNGAVKQEGRLMASLDTKARLSTLHITAAVHDLSATYFCAGYSGAGSYQLTFGKGTKLSVIP V domain 2: GAGVSQSPRYKVAKRGQDVALRCDPISGHVSLFWYQQALGQGPEFLTYFQNEAQLDKSGLPSDRFFAERPEGSVSTLKIQRTQQEDSAVYLCASSLLLGAYGYTFGSGTRLTVVE
25.5
